Assay: Oral bioavailability in dog
Assay type: ADME, organism-based, Canis lupus familiaris
Conditions: in vivo
readout-name: bioavailability (%)

Guide cases for bioavailability, answers given:
>>> value_measured("Cc1cc(C)cc(-c2[nH]c3ccc(C(C)(C)C(=O)N4CC5CCC4CC5)cc3c2[C@H](C)CNCCc2ccc3nn[nH]c3c2)c1")
20
>>> value_measured("Cc1cc(C)cc(-c2[nH]c3ccc(C(C)(C)C(=O)N4C5CCC4CC5)cc3c2[C@H](C)CNCCc2cccc3cnccc23)c1")
10
>>> value_measured("Cc1cc(C)cc(-c2[nH]c3ccc(C(C)(C)C(=O)N4C5CCC4CC5)cc3c2[C@H](C)CNCCCCc2cccc3cnccc23)c1")
4
>>> value_measured("Cc1cc(C)cc(-c2[nH]c3ccc(C(C)(C)C(=O)N4CC5CCC4CC5)cc3c2[C@H](C)CNCCc2c[nH]c3ncnc-3c2)c1")
16
>>> value_measured("Cc1cc(C)cc(-c2[nH]c3ccc(C(C)(C)C(=O)N4CC5CCC4CC5)cc3c2[C@H](C)CNCCc2ccc3nc[nH]c3c2)c1")
63

A: Cc1cc(C)cc(-c2[nH]c3ccc(C(C)(C)C(=O)N4C5CCC4CC5)cc3c2[C@H](C)CNCCc2ccc3[nH]nnc3c2)c1
B: Cc1cc(C)cc(-c2[nH]c3ccc(C(C)(C)C(=O)N4CC5CCC4CC5)cc3c2[C@H](C)CNCCc2ccc3[nH]c(=O)[nH]c3c2)c1
Of A and B , which shows the smaller bioavailability value? Let me know the label of the one you choose.
B
(B: 5%, A: 37%)
